Tested on: Monocotyledonous and dicotyledonous test plants
experimentDescription: Herbicidal action before emergence of the plants (pre-emergence action)
Assay type: in vivo
assayContext: Solanum; 2000 g/ha; evaluated after 3 weeks; nine-step scale

[
  {
    "compound": "CCC1(C)CC(C)(C)C(=O)C(C(=O)c2ccc(C(F)(F)F)nc2C)=C1O (stereo not drawn)",
    "pre-emergence action, Solanum": 1
  },
  {
    "compound": "COCCc1nc(C(F)(F)F)ccc1C(=O)C1=C(O)CCCC1=O",
    "pre-emergence action, Solanum": 1
  },
  {
    "compound": "C#CCC1CC(C)(C)C(=O)C(C(=O)c2ccc(C(F)(F)F)nc2C)=C1O (stereo not drawn)",
    "pre-emergence action, Solanum": 1
  },
  {
    "compound": "Cc1nc(C(F)(F)F)ccc1C(=O)C1=C(O)CCCC1=O",
    "pre-emergence action, Solanum": 2
  },
  {
    "compound": "CCOC(=O)C1(C)CCC(=O)C(C(=O)c2ccc(C(F)(F)F)nc2C)=C1O (stereo not drawn)",
    "pre-emergence action, Solanum": 2
  },
  {
    "compound": "Cc1nc(C(F)(F)F)ccc1C(=O)C1=C(O)C(C)(C)CC2(CC2)C1=O",
    "pre-emergence action, Solanum": 1
  },
  {
    "compound": "Cc1nc(C(F)(F)F)ccc1C(=O)C1=C(O)CC(C)CC1=O (stereo not drawn)",
    "pre-emergence action, Solanum": 1
  },
  {
    "compound": "COCc1nc(C(F)(F)F)ccc1C(=O)C1=C(O)CC(C(F)(F)F)CC1=O (stereo not drawn)",
    "pre-emergence action, Solanum": 1
  },
  {
    "compound": "COCc1nc(C(F)(F)F)ccc1C(=O)C1=C(O)C(C)(C)CCC1=O",
    "pre-emergence action, Solanum": 1
  }
]

---

Items are presented alongside their recorded pre-emergence action, Solanum.
Tested on: Monocotyledonous and dicotyledonous test plants
experimentDescription: Herbicidal action before emergence of the plants (pre-emergence action)
Type: in vivo
assayContext: Solanum; 2000 g/ha; evaluated after 3 weeks; nine-step scale
endpoint: pre-emergence action, Solanum

[
  {
    "compound": "COCc1nc(C(F)(F)F)ccc1C(=O)C1=C(O)C(C)(C(=O)OC)CCC1=O (stereo not drawn) [Compound A8-B34]",
    "endpointResult": 2
  },
  {
    "compound": "Cc1nc(C(F)(F)F)ccc1C(=O)C1=C(O)C(C)(C)OC(C)(C)C1=O [Compound A2-B618]",
    "endpointResult": 1
  },
  {
    "compound": "Cc1nc(C(F)(F)F)ccc1C(=O)C1=C(O)C(C)(C)CC(C)C1=O (stereo not drawn) [Compound A2-B68]",
    "endpointResult": 1
  },
  {
    "compound": "Cc1nc(C(F)(F)F)ccc1C(=O)C1=C(O)CCC2(CC2)C1=O [Compound A2-C1]",
    "endpointResult": 1
  },
  {
    "compound": "CCc1nc(C(F)(F)F)ccc1C(=O)C1=C(O)CCCC1=O [Compound A3-B1]",
    "endpointResult": 3
  },
  {
    "compound": "Cc1cc(C(=O)C2=C(O)CCCC2=O)c(C)nc1C(F)(F)F [Compound A184-B1]",
    "endpointResult": 1
  },
  {
    "compound": "Cc1nc(C(F)(F)F)ccc1C(=O)C1=C(O)C(C)(C)CC2(CCC2)C1=O [Compound A2-C147]",
    "endpointResult": 2
  },
  {
    "compound": "CC1(C)CCC(=O)C(C(=O)c2ccc(C(F)(F)F)nc2C(F)F)=C1O [Compound A18-B24]",
    "endpointResult": 1
  },
  {
    "compound": "Cc1nc(C(F)(F)F)ccc1C(=O)C1=C(O)C(C)CC2(CCC2)C1=O (stereo not drawn) [Compound A2-C152]",
    "endpointResult": 1
  },
  {
    "compound": "Cc1nc(C(F)(F)F)ccc1C(=O)C1=C(O)C(C)(C)C(C)CC1=O (stereo not drawn) [Compound A2-B156]",
    "endpointResult": 1
  },
  {
    "compound": "Cc1nc(C(F)(F)F)ccc1C(=O)C1=C(O)C(C)(S(C)(=O)=O)CCC1=O (stereo not drawn) [Compound A2-B31]",
    "endpointResult": 1
  },
  {
    "compound": "Cc1nc(C(F)(F)F)ccc1C(=O)C1=C(O)C(C(C)C)CC(C)C1=O (stereo not drawn) [Compound A2-B49]",
    "endpointResult": 1
  },
  {
    "compound": "Cc1nc(C(F)(F)F)ccc1C(=O)C1=C(O)C(C)(C)OCC1=O [Compound A2-B552]",
    "endpointResult": 1
  },
  {
    "compound": "Cc1nc(C(F)(F)C(F)(F)F)ccc1C(=O)C1=C(O)CCCC1=O [Compound A34-B1]",
    "endpointResult": 2
  },
  {
    "compound": "Cc1c(C(=O)C2=C(O)C(C)(C)C(=O)C(C)(C)C2=O)ccc(C(F)(F)F)[n+]1[O-] [Compound A1210-B354]",
    "endpointResult": 1
  },
  {
    "compound": "Cc1nc(C(F)(F)F)ccc1C(=O)C1=C(O)C(C)CCC1=O (stereo not drawn) [Compound A2-B2]",
    "endpointResult": 1
  },
  {
    "compound": "Cc1nc(C(F)(F)F)ccc1C(=O)C1=C(O)C(C)CC(C)C1=O (stereo not drawn) [A2-B46 (cis)]",
    "endpointResult": 1
  },
  {
    "compound": "CCC1(C)CC(C)C(=O)C(C(=O)c2ccc(C(F)(F)F)nc2C)=C1O (stereo not drawn) [Compound A2-B69]",
    "endpointResult": 1
  },
  {
    "compound": "CCc1nc(C(F)(F)F)ccc1C(=O)C1=C(O)C(C)(C)CCC1=O [Compound A3-B24]",
    "endpointResult": 1
  },
  {
    "compound": "Cc1nc(C(F)(F)C(F)(F)C(F)(F)F)ccc1C(=O)C1=C(O)C(C)(C)CCC1=O [Compound A64-B24]",
    "endpointResult": 1
  },
  {
    "compound": "CSC1(C)CC(C)C(=O)C(C(=O)c2ccc(C(F)(F)F)nc2C)=C1O (stereo not drawn) [Compound A2-B73]",
    "endpointResult": 2
  },
  {
    "compound": "Cc1nc(C(F)(F)F)ccc1C(=O)C1=C(O)C(C)CC(C)C1=O (stereo not drawn) [A2-B46 (trans)]",
    "endpointResult": 1
  },
  {
    "compound": "Cc1nc(C(F)(F)F)ccc1C(=O)C1=C(O)CCC2(CCC2)C1=O [Compound A2-C146]",
    "endpointResult": 1
  },
  {
    "compound": "CCC1CC(C)(C)C(=O)C(C(=O)c2ccc(C(F)(F)F)nc2C)=C1O (stereo not drawn) [Compound A2-B1089]",
    "endpointResult": 1
  },
  {
    "compound": "Cc1nc(C(F)(F)F)ccc1C(=O)C1=C(O)CC(C(C)C)CC1=O (stereo not drawn) [Compound A2-B1061]",
    "endpointResult": 1
  },
  {
    "compound": "COC(=O)C1C(O)=C(C(=O)c2ccc(C(F)(F)F)nc2C)C(=O)CC1C (stereo not drawn) [Compound A2-B144]",
    "endpointResult": 2
  },
  {
    "compound": "COC1CCC(=O)C(C(=O)c2ccc(C(F)(F)F)nc2C)=C1O (stereo not drawn) [Compound A2-B1068]",
    "endpointResult": 1
  },
  {
    "compound": "Cc1nc(C(F)(F)F)ccc1C(=O)C1=C(O)C(C)(C)CC(C)(C)C1=O [Compound A2-B90]",
    "endpointResult": 1
  },
  {
    "compound": "COC1CC(C)C(=O)C(C(=O)c2ccc(C(F)(F)F)nc2C)=C1O (stereo not drawn) [Compound A2-B1070]",
    "endpointResult": 2
  },
  {
    "compound": "Cc1nc(C(F)(F)F)ccc1C(=O)C1=C(O)C(C)(C)C(=O)C(C)(C)C1=O [Compound A2-B354]",
    "endpointResult": 1
  },
  {
    "compound": "CCN(CC)CC.COCc1nc(C(F)(F)F)ccc1C(=O)C1=C(O)CC(C)CC1=O (stereo not drawn) [Compound A8-B1101]",
    "endpointResult": 1
  },
  {
    "compound": "Cc1nc(C(F)(F)F)ccc1C(=O)C1=C(O)C(C)(S(C)(=O)=O)CC(C)C1=O (stereo not drawn) [Compound A2-B75]",
    "endpointResult": 1
  },
  {
    "compound": "Cc1nc(C(F)(F)F)ccc1C(=O)C1=C(O)C(C)(C)CCC1=O [Compound A2-B24]",
    "endpointResult": 1
  }
]

These entries and their values trace back to patent US6673938B1.
